B1: LINE1-full (parent)
chain: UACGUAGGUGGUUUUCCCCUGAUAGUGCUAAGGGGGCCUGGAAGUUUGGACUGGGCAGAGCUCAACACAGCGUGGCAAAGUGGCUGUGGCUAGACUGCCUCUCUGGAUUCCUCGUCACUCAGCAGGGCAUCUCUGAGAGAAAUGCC

variants of: B1; assay: self-cleavage, relative activity (ratio to wild type); higher = more cleavage; in vitro, sequencing; the parent is a self-cleaving ribozyme
Binary classification by self-cleavage, with 0.5 as an inclusive lower bound for Criterion met; all other cases are Criterion not met.

U14C C37U ... Criterion met
A24G G114C ... Criterion met
A2U U112C ... Criterion met

--- query ---
Ask: Check if self-cleavage >= 0.5 (inclusive). Item: A64C U112C
Reply: Criterion not met
